Species on record: Rattus norvegicus
experiment-notes: Anticarcinogenic activity in rat assessed as induction of tumors per day
Assay type: functional
measurement-type: pTD50
Number only, please.

Take a look at these entries with their results.
| compound | recorded-result |
| --- | --- |
| O=CNNc1nc(-c2ccc([N+](=O)[O-])o2)cs1 | 1.144 |
| O=[N+]([O-])c1ccc2ccc3cccc4ccc1c2c34 | 1.129 |
| CC(=O)Nc1nnc(-c2ccc([N+](=O)[O-])o2)s1 | 1.541 |
| O=[N+]([O-])c1cccc2cccnc12 | 1.739 |
| CC[N+](=O)[O-] | 4.465 |
| Cl.O=C1OC(CN2CCOCC2)CN1/N=C/c1ccc([N+](=O)[O-])o1 (stereo not drawn) | 0.938 |

For reference, reported pTD50 for Nc1nc(N)nc(-c2ccc([N+](=O)[O-])o2)n1 stands at 0.886

For reference, reported pTD50 for O=C1NC(c2ccc([N+](=O)[O-])s2)Nc2ccccc21 (stereo not drawn) stands at 0.745
